assay-remarks: Acute toxicity in mice after intraperitoneal and oral administration
stated-conditions: mouse, in vivo, ip; female albino Swiss mice, intraperitoneal, mortality recorded 7 days after administration; read-out: Acute Toxicity in Mice LD50 (mg/kg) i.p.
Where a name gives a salt, the structure may show the parent alone.
Listing of entries alongside the reported LD50 at 168 h.

Use the examples below as a reference point.
- molecule: "COc1ccccc1N1CCN(CCSCc2cccc3c(=O)c(C)c(-c4ccccc4)oc23)CC1.Cl"
  property-name: "LD50 at 168 h"
  reported-result: "730 mg/kg"
- molecule: "COc1ccccc1N1CCN(CCCCNc2cccc3c(=O)c(C)c(-c4ccccc4)oc23)CC1 [Example 34, hydrochloride hemihydrate]"
  property-name: "LD50 at 168 h"
  reported-result: "> 500 mg/kg"
- molecule: "Cc1c(-c2ccccc2)oc2c(C(=O)OCCCN3CCN(c4ccccc4Cl)CC3)cccc2c1=O.Cl.Cl"
  property-name: "LD50 at 168 h"
  reported-result: "384 mg/kg"

I have this molecule here, COc1ccccc1N1CCN(CCCN(C)c2cccc3c(=O)c(C)c(-c4ccccc4)oc23)CC1 [Example 35, hydrochloride hemihydrate] , and I need its recorded LD50 at 168 h. 329 mg/kg
